# System Name: T1, HLA-B*44:02 (human)
# T1 construct: also called peptide-receptive MHC molecules
# Test Description: UV-exchange b2m ELISA; exchange-yield grade
Metric: peptide exchange yield

Form field: reported peptide exchange yield of "YEVARILNL"
20 to 50%

Form field: reported peptide exchange yield of "REKFIASVI"
20 to 50%

Form field: reported peptide exchange yield of "REPGDIFSEL"
20 to 50%

Form field: reported peptide exchange yield of "VEQTRAGSLL"
20 to 50%

Form field: reported peptide exchange yield of "EEQYIAQF"
10 to 20%

Form field: reported peptide exchange yield of "YEKGIMQKV"
20 to 50%

Form field: reported peptide exchange yield of "KEVDPTSHSY"
20 to 50%

Form field: reported peptide exchange yield of "PEKTTHSF"
10 to 20%
